Cited source for all entries: patent US20210017287A1

# assayed-target: T1, TNFRSF25-Fc fusion protein (UniProt Q93038 25-199, limits assumed, biotinylated in the capture ELISA (site not stated))
# T1 construct: also called TNFRSF25-Fc protein; biotinylated antigen protein; not shown: Fc part
# T1 sequence (looked up): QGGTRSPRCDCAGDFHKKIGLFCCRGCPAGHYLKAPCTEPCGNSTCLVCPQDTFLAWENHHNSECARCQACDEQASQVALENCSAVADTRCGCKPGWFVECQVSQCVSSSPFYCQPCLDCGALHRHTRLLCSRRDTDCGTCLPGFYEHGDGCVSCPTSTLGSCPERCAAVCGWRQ
# protocol-summary: binding ELISA of scFv clones on TNFRSF25-Fc (FIG. 10)
Measured Bmax values are reported for all entries that follow.
Please reply with the number alone, leaving off any unit.

Some solved cases for reference:
binder: 9G2 (scFv, V domains shown, scFv; Frameworks and unchanged CDRs are those of the parental clone) VH: EVQLVESGGGLSQPGNSLQLSCEASGFTFSNHDLNWVRQAPGKGLEWVAYISSASGLISYADAVRGRFTISRDNAKNSLFLQMNNLKSEDTAMYYCARDPAYTGLYALDFWGQGTQVTVSS VL: QPVLTQSPSASASLSGSVKLTCTLSSELSWYTIVWYQQRPDKAPKYVMYLKSDGSHSKGDGIPDRFSGSSSGAHRYLSISNVQSEDDATYFCGAGYTLAGQYGWVFGSGTKVTVL
Bmax: 1.04
--
binder: 4B6 (scFv, V domains shown, scFv; Frameworks and unchanged CDRs are those of the parental clone) VH: EVQLVESGGGLSQPGNSLQLSCEASGFTFSNHDLNWVRQAPGKGLEWVAYISSASGLISYADAVRGRFTISRDNAKNSLFLQMNNLKSEDTAMYYCARDPAYTGLYALDFWGQGTQVTVSS VL: QPVLTQSPSASASLSGSVKLTCTLSSELSNYTIVWYQQRPDKAPKYVMYLKSDGSHSKGDGIPDRFSGSSSGAHRYLSISNVQSEDDATYFCGAGYTLANQYGWVFGSGTKVTVL
Bmax: 1.26
--
binder: 3G4 (scFv, V domains shown, scFv; Frameworks and unchanged CDRs are those of the parental clone) VH: EVQLVESGGGLSQPGNSLQLSCEASGFTFSNHDLNWVRQAPGKGLEWVAYISSASGLISYADAVRGRFTISRDNAKNSLFLQMNNLKSEDTAMYYCARDPAYTGLYALDFWGQGTQVTVSS VL: QPVLTQSPSASASLSGSVKLTCTLSSELSGFTIVWYQQRPDKAPKYVMYLKSDGSHSKGDGIPDRFSGSSSGAHRYLSISNVQSEDDATYFCGAGYTLARQYGWVFGSGTKVTVL
Bmax: 1.53
--
binder: 9A5 (scFv, V domains shown, scFv; Frameworks and unchanged CDRs are those of the parental clone) VH: EVQLVESGGGLSQPGNSLQLSCEASGFTFSNHDLNWVRQAPGKGLEWVAYISSASGLISYADAVRGRFTISRDNAKNSLFLQMNNLKSEDTAMYYCARDPAYTGLYALDFWGQGTQVTVSS VL: QPVLTQSPSASASLSGSVKLTCTLSSELSGFTIVWYQQRPDKAPKYVMYLKSDGSHSKGDGIPDRFSGSSSGAHRYLSISNVQSEDDATYFCGAGYTLANQYGWVFGSGTKVTVL
Bmax: 1.81

We next turn to a different binder, shown below.
// Bmax lookup, binder = 1F10 (scFv, V domains shown, scFv; Frameworks and unchanged CDRs are those of the parental clone) VH: EVQLVESGGGLSQPGNSLQLSCEASGFTFSNHDLNWVRQAPGKGLEWVAYISSASGLISYADAVRGRFTISRDNAKNSLFLQMNNLKSEDTAMYYCARDPAYTGLYALDFWGQGTQVTVSS VL: QPVLTQSPSASASLSGSVKLTCTLSSELSNFTIVWYQQRPDKAPKYVMYLKSDGSHSKGDGIPDRFSGSSSGAHRYLSISNVQSEDDATYFCGAGYTLASQYGWVFGSGTKVTVL , result: 1.73
